Target: T1, human EpCAM protein (human, UniProt P16422 24-265)
T1 construct: biotinylated in the Octet assays; also called hu EpCAM; biotinylated human EpCAM protein
T1 sequence (looked up): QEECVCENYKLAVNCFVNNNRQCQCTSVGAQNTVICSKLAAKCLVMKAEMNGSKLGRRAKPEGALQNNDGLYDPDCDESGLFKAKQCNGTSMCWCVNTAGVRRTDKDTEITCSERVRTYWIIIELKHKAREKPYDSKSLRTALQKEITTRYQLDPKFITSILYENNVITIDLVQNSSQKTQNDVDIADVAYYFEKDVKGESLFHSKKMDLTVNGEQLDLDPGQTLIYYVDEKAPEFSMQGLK
Experiment: colorimetric ELISA
Definition: the class of an entry is the range in Low = under 0.9 absorbance, Mid = from 0.9 absorbance up to 3 absorbance, High = 3 absorbance and over that contains its ELISA absorbance.

Recorded results for 6 binders are shown here.
[[record]]
binder = "Llama anti-EpCAM single domain antibody EPL15 (VHH, E. coli periplasmic extract) VHH: QVQLQESGGGSVLAGGSLRLSCAASGFTFSSYYMSWVRQAPGKGLEWVSGIHYTGDWTNYADSVKGRFTISRDNAKNELYLEMNNLKPEDTAVYYCARGSDKGQGTQVTVSS"
answer_label = "Low"

[[record]]
binder = "Llama anti-EpCAM single domain antibody EPL97 (VHH, E. coli periplasmic extract) VHH: QVQLQESGGGLVQAGGSLRLSCAASGIIFRGTTMGWFRQAPGKQRESVASISPLGTTSYSGSVEGRFTVSRDNAKNTLFLQMNSLKSEDTAVYYCNAIQVTNVGPRVYWGQGTQVTVSS"
answer_label = "Mid"

[[record]]
binder = "Llama anti-EpCAM single domain antibody EPL120 (VHH, E. coli periplasmic extract) VHH: QVQLQESGGGLVQAGGSLRLSCAASGFIFRAASISWYRQSPGNERELVATINSGGFTNYADSVLGRFTISRDNAKNTGYLQMNSLKPEDTAVYFCAATFLRSDGQPPIWGQGTQVTVSS"
answer_label = "High"

[[record]]
binder = "Llama anti-EpCAM single domain antibody EPL109 (VHH, E. coli periplasmic extract) VHH: QVQLQESGGGLVQPGGSLRLSCASSGFTLDDYTIGWFRQAPGKEREGVSCISRRDDSTYYADSVKGRFTISRDNAKNTVDLQMISLRPEDTAVYYCAATPRSYTLRCLGKFDFQGQGTQVTVSS"
answer_label = "Low"

[[record]]
binder = "Llama anti-EpCAM single domain antibody EPL43 (VHH, E. coli periplasmic extract) VHH: QVQLQESGGGLVQTGGSLRLSCAASESISSFIAVGWYRQAPGKERELVAGINRSGFTYYTDSVKGRFSISRDNAKNTVLLQMTSLKPEDTAVYYCNAGGLYFSNAYTQGDYWGQGTQVTVSS"
answer_label = "Mid"

[[record]]
binder = "Llama anti-EpCAM single domain antibody EPL189 (VHH, E. coli periplasmic extract) VHH: QVQLQESGGGLVQPGGSLRLSCAASGRINSINTMGWYRQAPGNQRELVAEITRGGTTNYADSVQGRYAISRDNAKNLVYLQMNSLKPEDTDVYYCNAQTFPTFSRPTGLDYWGQGTQVTVSS"
answer_label = "Mid"


Which class is correct for the following binder? Llama anti-EpCAM single domain antibody EPL164 (VHH, E. coli periplasmic extract) VHH: QVQLQESGGGLVQAGGSLRLSCAASGFIFRAASMDWYRQSPGTQPELVATISSTGFTNYANSVKGRFTISRDNAKNTVYLQMNSLKPEDTAVYFCGATFLRSDGQHSIYGQGTQVTVSS
Low

Looking at Llama anti-EpCAM single domain antibody EPL126 (VHH, E. coli periplasmic extract) VHH: QVQLQESGGGLVQAGGSLRLSCAASGFIFRAASMGWYRQSPGNERELVATINSGGFTNYADSVKGRFTISRDNAKNTGYLQMNSLKPEDTAVYFCAATFLRSDGQPPIWGQGTQVTVSS , which class would you pick?
High

The entry to classify is Llama anti-EpCAM single domain antibody EPL156 (VHH, E. coli periplasmic extract) VHH: QVQLQESGGGLVQPGASLRVSCAASEYILSMYRMAWYRQAPGKVRELVADMSSGGTTNYADFVKGRFTISRDNDRNTVYLQMNRLQPEDTAAYYCNVAGRTGPPSYDAFNNWGQGTQVTVSS ; which class holds it?
High

Class? Entry: Llama anti-EpCAM single domain antibody EPL20 (VHH, E. coli periplasmic extract) VHH: QVQLQESGGGLVQAGGSLKLSCAASGNVFRAATMAWYRQAPEKQREMVATIASGGTTNYADFVKGRFTISRDNAKNTVYLQMNTLKPEDTAVYYCNAGYLTSLGPKNYWGQGTQVTVSS
Mid

Pick a category. Item: Llama anti-EpCAM single domain antibody EPL55 (VHH, E. coli periplasmic extract) VHH: QVQLQESGGGLVQAGGSLRLSCAASGDTFLRYAMGWFRQAPGKEREFVAAITWNGGNTDYAGSLKGRFTISRDNTKNTVYLQMNSLKPEDTAVYYCAADLTFGLASSHYQYDYWGQGTQVTVSS
Low

Quick check: band for Llama anti-EpCAM single domain antibody EPL10 (VHH, E. coli periplasmic extract) VHH: QVQLQESGGGLVQAGGSLRLSCAASGSVFRANVMGWYRQAPGKQHELVARIDPGGTTTYADPVKGRFTISRDNAKKTVYLQMNSLKPDDTAVYYCNAIILLSGGPKDYWGQGTQVTVSS
Mid

For the record Llama anti-EpCAM single domain antibody EPL2 (VHH, E. coli periplasmic extract) VHH: QVQLQESGGGLVQPGGSLRLSCAASESISSFIAVGWYRQAPGKERELVAGINRSGFTYYTDSVKGRFSISRDNAKNTVLLQMTSLKPEDTAVYYCNAGGLYFSNAYTQGDYWGQGTQVTVSS , report the class its ELISA absorbance corresponds to.
Mid

Measured values drawn from patent US20240336909A1 for this set.
